Substrate: O=c1ccn([C@@H]2O[C@H](COP(=O)(O)OP(=O)(O)O[C@H]3O[C@H](CO)[C@H](O)[C@H](O)[C@H]3O)[C@@H](O)[C@H]2O)c(=O)[nH]1
Test: galactosyltransferase assay, HPLC-UV
Assay type: biochemical, Homo sapiens
Details: apparent, fixed 5 mM 4-MUX, 10 mM MnCl2, 100 mM sodium cacodylate pH 7.0, 37 °C
From the text: galactosyltransferase assay, HPLC-UV on hβ4GalT7 (GST-β4GalT7)
measurement.type: kcat/Km (M⁻¹ s⁻¹)
Respond with the bare value in M⁻¹ s⁻¹.

If you can, please state the reported kcat/Km value of hβ4GalT7 (GST-β4GalT7) (Homo sapiens; H195Q) (protein, truncated soluble form lacking the first 60 N-terminal amino acids (transmembrane domain and part of stem), GST fusion (tag kept), pET-41a(+), E. coli BL21(DE3), glutathione-Sepharose purified) VRGQGQETSGPPRACPPEPPPEHWEEDASWGPHRLAVLVPFRERFEELLVFVPHMRRFLSRKKIRHHIYVLNQVDHFRFNRAALINVGFLESSNSTDYIAMHDVDLLPLNEELDYGFPEAGPFHVASPELHPLYQYKTYVGGILLLSKQHYRLCNGMSNRFWGWGREDDEFYRRIKGAGLQLFRPSGITTGYKTFRHLHDPAWRKRDQKRIAAQKQEQFKVDREGGLNTVKYHVASRTALSVGGAPCTVLNIMLDCDKTATPWCTFS .
4920
